# target.system: T1, N1 binding to cell surface expressed hJ1 (Homo sapiens, UniProt P78504)
# T1 construct: cell expressed full length human J1 (hJ1; HEK293 transfectants); expressed in transfected cells; host or cells: HEK293
# T1 sequence (P78504 34-1218): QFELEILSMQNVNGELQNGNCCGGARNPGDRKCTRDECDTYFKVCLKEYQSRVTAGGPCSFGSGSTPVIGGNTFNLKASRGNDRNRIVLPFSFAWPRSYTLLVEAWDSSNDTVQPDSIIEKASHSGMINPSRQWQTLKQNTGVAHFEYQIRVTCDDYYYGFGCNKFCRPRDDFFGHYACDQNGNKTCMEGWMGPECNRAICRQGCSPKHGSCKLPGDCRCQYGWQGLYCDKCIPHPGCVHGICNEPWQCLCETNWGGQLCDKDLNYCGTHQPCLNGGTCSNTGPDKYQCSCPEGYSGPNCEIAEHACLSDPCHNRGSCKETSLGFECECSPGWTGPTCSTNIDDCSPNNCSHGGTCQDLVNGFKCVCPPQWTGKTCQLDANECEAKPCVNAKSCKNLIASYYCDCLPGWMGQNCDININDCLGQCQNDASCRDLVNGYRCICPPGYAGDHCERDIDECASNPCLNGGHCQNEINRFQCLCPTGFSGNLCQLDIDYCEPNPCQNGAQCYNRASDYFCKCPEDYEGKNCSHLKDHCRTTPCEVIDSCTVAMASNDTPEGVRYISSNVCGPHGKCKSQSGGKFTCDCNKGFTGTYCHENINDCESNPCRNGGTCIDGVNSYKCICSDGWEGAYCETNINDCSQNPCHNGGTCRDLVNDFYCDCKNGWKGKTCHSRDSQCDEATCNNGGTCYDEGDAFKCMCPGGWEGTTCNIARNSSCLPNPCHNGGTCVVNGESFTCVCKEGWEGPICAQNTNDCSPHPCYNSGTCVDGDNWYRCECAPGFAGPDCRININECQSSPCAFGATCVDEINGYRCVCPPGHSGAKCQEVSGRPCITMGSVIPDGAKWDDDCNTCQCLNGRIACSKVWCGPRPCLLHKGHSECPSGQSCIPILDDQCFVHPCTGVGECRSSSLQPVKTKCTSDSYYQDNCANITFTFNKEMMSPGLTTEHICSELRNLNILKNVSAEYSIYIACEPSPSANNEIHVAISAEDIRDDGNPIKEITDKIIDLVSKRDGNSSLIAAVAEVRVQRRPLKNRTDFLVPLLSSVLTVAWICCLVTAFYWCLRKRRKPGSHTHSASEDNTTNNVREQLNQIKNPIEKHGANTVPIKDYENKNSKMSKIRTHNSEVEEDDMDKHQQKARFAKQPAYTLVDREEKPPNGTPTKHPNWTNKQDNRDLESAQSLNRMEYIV
# assay.overview: Notch binding blocking assay (FACS): N1 EGF11-13 beads staining human J1-expressing cells
# experimental.context: final antibody concentration 1.0 μg/ml
assay.readout: Blocking of Notch1 binding to cell surface Jagged 1

molecule	data.value
J1-183D variant 10: humanised/de-immunised J1-183D: J1-183D_VL_3 + J1-183D_VH_2 (antibody, V domains shown) VH: QVQLVQSGAELKKPGASVKVSCKVSGYAFTDYAIHWIRQAPGQGLEWMGIINTYYGDSKYAQKFQGRVTMTVDTSTSTAYMELSSLRSEDTAVYYCARGYDGFAYWGQGTLVTVSSASTKGP VL: DIQMTQSPSSLSASVGDRVTITCRTSENIYSYLTWYQQKPGKAPKLLIYNAKILDSGVPSRFSGSGSGTDFTLTISSLQPEDFATYYCQHHYDIPWTFGGGTKLEIKRT	+ (Complete blocking)
J1-183D variant 7: humanised/de-immunised J1-183D: J1-183D_VL_2 + J1-183D_VH_3 (antibody, V domains shown) VH: QVQLVQSGAELKKPGASVKVSCKVSGYAFTDYAIHWVRQAPGQGLEWMGIINTYYGDSKYAQKFQGRVTMTVDTSTSTAYMELSSLRSEDTAVYYCARGYDGFAYWGQGTLVTVSSASTKGP VL: DIQMTQSPSSLSASVGDRVTITCRTSENIYSYLTWYQQKPGKAPKLLIYNAKTLASGVPSRFSGSGSGTDFTLTISSLQPEDFATYYCQHHYDIPWTFGGGTKLEIKRT	+ (Complete blocking)
